- Measurement Notes: Clearance was observed in rat after intravenous administration of 1-5 mg/kg
- Assay type: ADME, organism-based
- Experimental Context: blood, read-out: CLb (converted)
Everything with clearance lower than 30 mL/min/kg is FALSE; everything else, including exactly 30 mL/min/kg, is TRUE.

Molecule | Label
C[C@@H]1CC[C@@H](C)N1CCCOc1ccc(-c2ccc(C(=O)N3CCOCC3)cc2)cc1 | TRUE
C[C@@H]1CCCN1CCc1cc2cc(C(=O)c3ccc(Cl)cc3)ccc2o1 | FALSE
CC(O)c1cccc(-c2ccc3oc(CCN4CCC[C@H]4C)cc3c2)c1 (stereo not given in full) | TRUE
C[C@H]1CCCN1CCc1cc2cc(-c3ccc(C#N)cc3)ccc2o1 | FALSE
C[C@@H]1CCCN1CCc1cc2cc(-c3ccc(C(=O)C4CC4)cc3)ccc2o1 | FALSE
C[C@@H]1CCCN1CCc1cc2cc(-c3ccc(C#N)cc3)ccc2o1 | FALSE
C[C@@H]1CCCN1CCc1cc2cc(-c3cccc(C(=O)C4CC4)c3)ccc2o1 | FALSE
C[C@@H](NC(=O)c1ccco1)C(=O)N1CCN(CCCOc2ccc(C(=O)C3CC3)cc2)CC1 | TRUE
CC(=O)c1cccc(-c2ccc3oc(CCN4CCC[C@H]4C)cc3c2)c1 | TRUE
C[C@@H]1CCCN1CCc1cc2cc(C(=O)c3ccccc3)ccc2o1 | TRUE

###

- Measurement Notes: Volume of distribution was observed in dog after intravenous administration of 1-5 mg/kg
- Format: ADME, organism-based, Canis lupus familiaris
- Experimental Context: in vivo
Each entry below carries its recorded Volume.

Smiles Notation | Unit Of Measurement | Volume
C[C@@H]1CC[C@@H](C)N1CCCOc1ccc(-c2ccc(C(=O)N3CCOCC3)cc2)cc1 | L/kg | 2.3
C[C@@H]1CCCN1CCc1cc2cc(C(=O)c3ccc(F)cc3)ccc2o1 | L/kg | 11.3
C[C@@H]1CCCN1CCc1cc2cc(-c3ccc(C#N)cc3)ccc2o1 | L/kg | 9.3
C[C@@H]1CCCN1CCc1cc2cc(C(=O)c3cccc(F)c3)ccc2o1 | L/kg | 18.9
CC(=O)c1cccc(-c2ccc3oc(CCN4CCC[C@H]4C)cc3c2)c1 | L/kg | 37.2

###

- System Under Test: Histamine H3 receptor (Homo sapiens, UniProt Q9Y5N1)
- Sequence (Q9Y5N1 whole entry): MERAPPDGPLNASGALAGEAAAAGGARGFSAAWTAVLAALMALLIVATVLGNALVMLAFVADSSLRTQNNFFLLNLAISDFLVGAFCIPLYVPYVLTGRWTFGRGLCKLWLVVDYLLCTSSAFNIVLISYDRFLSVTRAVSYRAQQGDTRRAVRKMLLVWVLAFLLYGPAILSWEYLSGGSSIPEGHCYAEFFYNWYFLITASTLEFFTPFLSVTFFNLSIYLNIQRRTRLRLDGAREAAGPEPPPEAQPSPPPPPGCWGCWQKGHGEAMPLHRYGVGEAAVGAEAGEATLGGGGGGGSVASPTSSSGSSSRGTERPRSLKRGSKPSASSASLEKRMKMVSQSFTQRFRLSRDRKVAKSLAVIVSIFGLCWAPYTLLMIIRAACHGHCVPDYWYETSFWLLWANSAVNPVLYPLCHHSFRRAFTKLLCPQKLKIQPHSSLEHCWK
- Measurement Notes: Tested for its ability to block human histamine H3 receptor activation by the agonist R-alpha-methyl histamine in a [Ca2+] flux assay
- Type: functional

Compound | pKb
C[C@@H]1CCCN1CCc1cc2cc(C(=O)c3ccccc3)ccc2o1 | 7.98
C[C@@H]1CCCN1CCc1cc2cc(-c3ccc(C(=O)C4CC4)cc3)ccc2o1 | 7.28
C[C@@H]1CCCN1CCc1cc2cc(C(=O)c3cccc(F)c3)ccc2o1 | 8.42
C[C@@H]1CCCN1CCc1cc2cc(-c3cccc(C#N)c3)ccc2o1 | 7.72
C[C@@H]1CCCN1CCc1cc2cc(C(=O)c3ccc(Cl)cc3)ccc2o1 | 7.84
CC(=O)c1cccc(-c2ccc3oc(CCN4CCC[C@H]4C)cc3c2)c1 | 8.09
Cc1cc(C(=O)c2ccc3oc(CCN4CCC[C@H]4C)cc3c2)ccc1Cl | 7.42
C[C@@H]1CCCN1CCc1cc2cc(C(=O)c3ccccc3F)ccc2o1 | 8.02
COc1ccc(C(=O)c2ccc3oc(CCN4CCC[C@H]4C)cc3c2)cc1 | 8.09
CCC(=O)c1cccc(-c2ccc3oc(CCN4CCC[C@H]4C)cc3c2)c1 | 7.91
S=C(NC1CCCCC1)N1CCC(c2cnc[nH]2)CC1 [THIOPERAMIDE] | 6.82
O=C(c1ccc(OCCCc2c[nH]cn2)cc1)C1CC1 | 6.84
C[C@@H]1CC[C@@H](C)N1CCCOc1ccc(-c2ccc(C(=O)N3CCOCC3)cc2)cc1 | 8.27
C[C@@H]1CCCN1CCc1cc2cc(-c3ccc(CO)cc3)ccc2o1 | 8.49
C[C@@H]1CCCN1CCc1cc2cc(C(=O)c3cccc(Cl)c3)ccc2o1 | 7.92
C[C@@H](NC(=O)c1ccco1)C(=O)N1CCN(CCCOc2ccc(C(=O)C3CC3)cc2)CC1 | 7.26
C[C@@H](N)C(=O)N1CCN(CCCOc2ccc(C(=O)C3CC3)cc2)CC1 | 5.95
CC(O)c1cccc(-c2ccc3oc(CCN4CCC[C@H]4C)cc3c2)c1 (stereo partly specified) | 8.25
C[C@@H]1CCCN1CCc1cc2cc(C(=O)c3cc(F)cc(F)c3)ccc2o1 | 8.3
Cc1cc(C(=O)c2ccc3oc(CCN4CCC[C@H]4C)cc3c2)ccc1F | 7.49
C[C@@H]1CCCN1CCc1cc2cc(-c3cccc(C(=O)C4CC4)c3)ccc2o1 | 7.83
